The reported measurements were obtained from patent US20140161799A1.

Each record here notes measured mean fluorescence relative to chimeric antibody.
Target desc: T1, human CD47 (human, UniProt Q08722 19-323)
T1 construct: whole, on cells; also called CD47 on human red blood cells
T1 sequence (Q08722 19-323): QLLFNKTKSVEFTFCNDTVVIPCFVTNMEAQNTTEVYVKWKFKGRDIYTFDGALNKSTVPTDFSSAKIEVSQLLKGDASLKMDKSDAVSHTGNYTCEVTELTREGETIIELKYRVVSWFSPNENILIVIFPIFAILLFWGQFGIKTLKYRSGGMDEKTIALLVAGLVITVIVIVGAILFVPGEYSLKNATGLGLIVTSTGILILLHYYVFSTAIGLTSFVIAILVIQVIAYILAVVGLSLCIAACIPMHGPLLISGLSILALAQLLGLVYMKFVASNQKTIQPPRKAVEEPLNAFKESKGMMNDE
Measurement protocol: flow cytometry on RBCs, antibody 10 ng/ml
Method: Cross species reactivity of humanized antibodies of the present invention is determined using freshly isolated red blood cells (RBCs), which display CD47 on their surface, from human, mouse, rat, and pig according to the methods disclosed in Kamel et al. (2010) Blood. Transfus. 8(4):260-266. […]

Examples from the recorded data:
{"Binder": "pVxK7b-037-hum03-LC/pVxK7b-037-hum03-HC (antibody, human IgG1, V domains shown, Full-length human IgG1/kappa in CHO supernatant; Variable entries end within framework 4 (...FGQG / ...WGQG); also called Clone 3) VH: EVQLVQSGAEVKKPGESLRISCKGSGYTFTNYYVFWVRQARGQRLEWIGDINPVNGDTNFNEKFKNRVTITADKSTSTAYMELSSLRSEDTAVYYCARGGYTMDYWGQG VL: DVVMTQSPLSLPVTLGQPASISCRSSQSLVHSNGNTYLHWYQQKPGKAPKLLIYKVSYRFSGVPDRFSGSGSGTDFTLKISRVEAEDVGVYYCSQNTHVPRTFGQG", "Value reported": "0.7 fold of chimera"}
{"Binder": "pVxK7b-037-hum10-LC/pVxK7b-037-hum10-HC (antibody, human IgG1, V domains shown, Full-length human IgG1/kappa in CHO supernatant; Variable entries end within framework 4 (...FGQG / ...WGQG); also called Clone 10) VH: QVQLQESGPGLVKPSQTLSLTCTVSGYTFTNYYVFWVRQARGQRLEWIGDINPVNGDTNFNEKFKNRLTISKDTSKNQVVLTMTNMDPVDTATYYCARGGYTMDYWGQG VL: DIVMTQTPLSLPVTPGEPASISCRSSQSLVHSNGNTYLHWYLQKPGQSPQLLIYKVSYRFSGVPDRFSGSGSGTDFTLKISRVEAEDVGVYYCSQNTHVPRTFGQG", "Value reported": "1.1 fold of chimera"}
{"Binder": "pVxK7b-037-hum14-LC/pVxK7b-037-hum14-HC (antibody, human IgG1, V domains shown, Full-length human IgG1/kappa in CHO supernatant; Variable entries end within framework 4 (...FGQG / ...WGQG); also called Clone 14) VH: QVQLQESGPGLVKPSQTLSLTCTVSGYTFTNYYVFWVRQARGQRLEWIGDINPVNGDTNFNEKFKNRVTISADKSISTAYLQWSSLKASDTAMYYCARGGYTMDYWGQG VL: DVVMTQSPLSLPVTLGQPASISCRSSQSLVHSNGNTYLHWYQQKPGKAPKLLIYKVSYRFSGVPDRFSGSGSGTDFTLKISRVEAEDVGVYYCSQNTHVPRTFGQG", "Value reported": "1.1 fold of chimera"}
{"Binder": "pVxK7b-037-hum09-LC/pVxK7b-037-hum09-HC (antibody, human IgG1, V domains shown, Full-length human IgG1/kappa in CHO supernatant; Variable entries end within framework 4 (...FGQG / ...WGQG); also called Clone 9) VH: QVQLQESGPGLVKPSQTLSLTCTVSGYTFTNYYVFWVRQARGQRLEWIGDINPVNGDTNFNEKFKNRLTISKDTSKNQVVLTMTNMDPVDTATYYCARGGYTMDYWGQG VL: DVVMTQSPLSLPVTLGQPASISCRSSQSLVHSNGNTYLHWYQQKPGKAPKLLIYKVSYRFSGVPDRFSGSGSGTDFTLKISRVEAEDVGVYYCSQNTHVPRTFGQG", "Value reported": "1.2 fold of chimera"}

API: the following record is the query input.
get_value(item= pVxK7b-037-hum05-LC/pVxK7b-037-hum05-HC (antibody, human IgG1, V domains shown, Full-length human IgG1/kappa in CHO supernatant; Variable entries end within framework 4 (...FGQG / ...WGQG); also called Clone 5) VH: QVQLQESGPGLVKPSQTLSLTCTVSGYTFTNYYVFWVRQAPGKGLEWVSDINPVNGDTNFNEKFKNRVTISVDTSKNQFSLKLSSVTAADTAVYYCARGGYTMDYWGQG VL: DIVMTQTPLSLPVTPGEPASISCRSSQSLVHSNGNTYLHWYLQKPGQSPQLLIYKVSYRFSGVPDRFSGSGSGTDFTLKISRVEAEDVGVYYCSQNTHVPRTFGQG , readout=mean fluorescence relative to chimeric antibody) returns 1 fold of chimera
